# target or system: Recombinant human calpain I (Homo sapiens)
# Construct: made in house
# Sequence (P07384 whole entry): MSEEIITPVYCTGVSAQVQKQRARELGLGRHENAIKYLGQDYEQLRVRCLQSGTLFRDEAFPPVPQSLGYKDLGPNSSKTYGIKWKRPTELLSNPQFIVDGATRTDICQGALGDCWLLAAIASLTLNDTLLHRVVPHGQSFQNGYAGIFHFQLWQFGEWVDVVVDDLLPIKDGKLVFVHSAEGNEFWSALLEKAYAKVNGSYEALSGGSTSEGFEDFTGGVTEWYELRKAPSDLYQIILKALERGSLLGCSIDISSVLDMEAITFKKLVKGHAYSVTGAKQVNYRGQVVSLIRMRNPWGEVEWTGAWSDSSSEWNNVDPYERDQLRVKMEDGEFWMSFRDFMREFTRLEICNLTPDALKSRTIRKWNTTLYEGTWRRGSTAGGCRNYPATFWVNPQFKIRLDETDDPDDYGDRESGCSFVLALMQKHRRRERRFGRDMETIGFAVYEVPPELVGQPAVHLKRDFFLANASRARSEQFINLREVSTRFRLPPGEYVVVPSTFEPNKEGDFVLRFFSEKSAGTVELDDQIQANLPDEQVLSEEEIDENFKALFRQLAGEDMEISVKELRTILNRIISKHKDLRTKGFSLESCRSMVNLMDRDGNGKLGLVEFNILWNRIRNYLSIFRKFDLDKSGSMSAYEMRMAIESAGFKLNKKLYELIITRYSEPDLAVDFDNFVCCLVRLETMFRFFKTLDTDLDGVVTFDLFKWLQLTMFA
# Sequence (P04632 whole entry partner): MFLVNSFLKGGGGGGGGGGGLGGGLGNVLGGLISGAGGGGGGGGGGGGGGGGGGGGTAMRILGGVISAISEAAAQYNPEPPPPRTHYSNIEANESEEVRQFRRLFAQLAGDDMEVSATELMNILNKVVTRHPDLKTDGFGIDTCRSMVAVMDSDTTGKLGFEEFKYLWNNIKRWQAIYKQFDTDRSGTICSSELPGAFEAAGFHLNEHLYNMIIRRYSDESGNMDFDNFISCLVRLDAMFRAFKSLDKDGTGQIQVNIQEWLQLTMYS
# assay explanation: Inhibition of cysteine protease activity: calpain I, Succ-Leu-Tyr-MNA substrate hydrolysis
# Assay type: biochemical
# run parameters: Table 4, α-ketoamides
pIC50: −log10 of the molar value.
readout kind: pIC50

In the examples that follow, each entry is paired with its recorded pIC50.
CC(=O)Nc1nc(C)c(S(=O)(=O)NCCNC(=O)C(=O)[C@H](Cc2ccccc2)NC(=O)[C@@H](COCc2ccccc2)NS(C)(=O)=O)s1 | 7.64
COc1ccc(-c2ccc(S(=O)(=O)NCCNC(=O)C(=O)C(Cc3ccccc3)NC(=O)C(COCc3ccccc3)NS(C)(=O)=O)s2)cc1 (mixture of isomers) | 7.89

[P] CS(=O)(=O)N[C@H](COCc1ccccc1)C(=O)N[C@@H](Cc1ccccc1)C(=O)C(=O)NCCNS(=O)(=O)c1ccc(-c2ccccc2CN2CCOCC2)s1
[Q] COCCN(CCOC)Cc1cccc(-c2ccc(S(=O)(=O)NCCNC(=O)C(=O)[C@H](Cc3ccccc3)NC(=O)[C@@H](COCc3ccccc3)NS(C)(=O)=O)s2)c1
[R] CS(=O)(=O)NC(C(=O)NC(Cc1ccccc1)C(=O)C(=O)NCCNS(=O)(=O)c1ccccc1)c1ccccc1 (mixture of isomers)
[S] C[C@H](OCc1ccccc1)[C@@H](NS(C)(=O)=O)C(=O)N[C@@H](Cc1ccccc1)C(=O)C(=O)NCCNS(=O)(=O)c1ccc(-c2ccccn2)s1
Inquiry: List by increasing pIC50. Response field: labels, in requested order.
Reply text: R, P, Q, S
(R: 7.10, P: 7.40, Q: 7.66, S: 7.92)

[I] CS(=O)(=O)N[C@H](COCc1ccccc1)C(=O)N[C@@H](Cc1ccccc1)C(=O)C(=O)NCCNS(=O)(=O)c1cc2ccccc2s1
[II] CS(=O)(=O)NC(COCc1ccccc1)C(=O)NC(Cc1ccccc1)C(=O)C(=O)NCCNS(=O)(=O)c1ccc(CN2CC=CC2)cc1 (mixture of isomers)
Inquiry: Response body: label of entry with the larger pIC50; valid values I , II . I would appreciate it if you answered with the label of your choice.
Reply text: I
(I: 7.64, II: 7.14)
